# Tested on: cows (Holstein Friesians)
# protocol-summary: Treatment with DPD analogs (organosulfur compounds) and milk yield (Example 8)
# Assay type: in vivo, cow
# measurement-conditions: 72 h after one oral gel capsule; dose equimolar to 80 ml di-n-propyl disulfide; negative value = increase in yield
metric-name: % reduction after 72 h average (milk yield) (%)
Answer with a number only, understood to be in %.

Some compounds with recorded % reduction after 72 h average (milk yield):
compound: O=S(=O)(Cc1ccccc1)SCc1ccccc1 [Dibenzyl thiosulfonate, di-benzyl thiosulfonate]
experimental-system: cows (Holstein Friesians)
result-unit: %
endpoint-value: 28
//
compound: CCCS[S+]([O-])CCC (stereo not shown) [PTS, di-n-propyl thiosulfinate]
experimental-system: cows (Holstein Friesians)
result-unit: %
endpoint-value: 23
//
compound: [O-][S+](Cc1ccccc1)SCc1ccccc1 (stereo not shown) [Dibenzyl thiosulfinate, di-benzyl thiosulfinate]
experimental-system: cows (Holstein Friesians)
result-unit: %
endpoint-value: 27.5

Which % reduction after 72 h average (milk yield) value belongs to CCCSS(=O)(=O)CCC [PTSO, di-n-propyl thiosulfonate] ?
41

###

Catalogue of compounds with associated Milk yield (kg) After 72 h
# Tested on: cows (Holstein Friesians)
# protocol-summary: Treatment with DPD analogs (organosulfur compounds) and milk yield (Example 8)
# Type: in vivo, cow
# measurement-conditions: individual cows; dose per compound as listed in E284
Quick note: give the figure in kg, leave out the unit.

Checklist item: Milk yield (kg) After 72 h tested on cows (Holstein Friesians), entry O=S(=O)(Cc1ccccc1)SCc1ccccc1 [Dibenzyl thiosulfonate, di-benzyl thiosulfonate] , value?
19.9

Further, for CCCS(=O)(=O)CCC ?
15.2

Ok, now CC(C)SSC(C)C [Diisopropyl disulfide, di-isopropyl disulfide]
18.5

// query: CCCSSCCC [DPD, di-n-propyl disulfide]
15.6

Then this compound: CCCSS(=O)(=O)CCC [PTSO, di-n-propyl thiosulfonate]
9.3

###

Here, each record is paired with measured % reduction after 48 h average (milk yield) data.
# System: cows (Holstein Friesians)
# protocol-summary: Treatment with DPD analogs (organosulfur compounds) and milk yield (Example 8)
# Type: in vivo, cow
# measurement-conditions: 48 h after one oral gel capsule; dose equimolar to 80 ml di-n-propyl disulfide; negative value = increase in yield
Answer format: numeric, % implied, no suffix.

molecule: [O-][S+](Cc1ccccc1)SCc1ccccc1 (stereo not shown) [Dibenzyl thiosulfinate, di-benzyl thiosulfinate]
endpoint-value: 37
//
molecule: CCCS[S+]([O-])CCC (stereo not shown) [PTS, di-n-propyl thiosulfinate]
endpoint-value: 44
//
molecule: O=S(=O)(Cc1ccccc1)SCc1ccccc1 [Dibenzyl thiosulfonate, di-benzyl thiosulfonate]
endpoint-value: 48

Moving on to the next molecule.
May I ask what % reduction after 48 h average (milk yield) has been recorded for CCCSS(=O)(=O)CCC [PTSO, di-n-propyl thiosulfonate] ?
71
